Protocol Summary: Oral pharmacokinetic (PK) study (Quintara Discovery)
Assay type: in vivo
Study Conditions: plasma; oral gavage 30 mg/kg, Hot Rod Formulation Kit #8
Quantity Name: AUC(0-inf) (ng·h/mL)
Write the value in ng·h/mL as a bare number.

Exercise: Tell us which AUC(0-inf) value is on record for CN(C)C(=O)c1cc2cnc(Nc3ccc(-c4csc5c(=O)cc(N6CCOCC6)oc45)cc3)nc2n1C1CCCC1
Key: 3520

---

Test System: PIM1 (Homo sapiens)
Sequence (P11309 whole entry, species assumed): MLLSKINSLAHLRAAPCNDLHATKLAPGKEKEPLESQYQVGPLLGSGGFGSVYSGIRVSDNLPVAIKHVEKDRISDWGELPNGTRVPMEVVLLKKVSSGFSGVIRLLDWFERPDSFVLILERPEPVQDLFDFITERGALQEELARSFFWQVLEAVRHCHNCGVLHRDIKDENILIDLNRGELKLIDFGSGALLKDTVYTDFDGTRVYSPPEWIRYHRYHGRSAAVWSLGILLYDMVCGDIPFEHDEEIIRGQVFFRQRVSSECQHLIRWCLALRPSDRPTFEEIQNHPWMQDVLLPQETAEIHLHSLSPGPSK
Quantity Name: IC50
# number then unit; no other words

Exercise: Tell us which IC50 value is on record for CN(C)C(=O)c1cc2cnc(Nc3ccc(-c4csc5c(=O)cc(N6CCOCC6)oc45)cc3)nc2n1C1CCCC1
Key: 35 nM
